Hello, the source for this data is PubChem BioAssay AID778, in case you need it.

assayTarget: Cytochrome P450 2C19 (Homo sapiens) (UniProt P33261)
Sequence (P33261 whole entry, looked up): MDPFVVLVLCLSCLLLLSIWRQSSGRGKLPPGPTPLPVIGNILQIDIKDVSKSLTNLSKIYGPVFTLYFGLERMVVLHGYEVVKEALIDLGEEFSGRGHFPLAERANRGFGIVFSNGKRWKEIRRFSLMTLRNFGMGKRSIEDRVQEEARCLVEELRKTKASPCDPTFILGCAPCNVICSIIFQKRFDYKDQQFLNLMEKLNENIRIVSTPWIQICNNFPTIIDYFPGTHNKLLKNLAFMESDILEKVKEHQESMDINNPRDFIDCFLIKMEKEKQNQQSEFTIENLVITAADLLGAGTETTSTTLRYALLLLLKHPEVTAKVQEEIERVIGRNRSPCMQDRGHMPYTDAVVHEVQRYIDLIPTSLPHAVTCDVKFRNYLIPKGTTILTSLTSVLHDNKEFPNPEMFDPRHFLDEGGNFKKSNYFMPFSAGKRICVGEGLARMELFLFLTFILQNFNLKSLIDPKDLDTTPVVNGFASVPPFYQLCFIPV
procedureDetails: blockers of cytochrome P450 2C19 activity – biochemical, luminescence, ADME assay, primary screen (AID 778);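 further: plate controls were negative control wells for no effect and 2.5 mM tranylcypromine positive control for full effect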
conditionParameters: CYP2C19 Supersomes, luciferin-H EGE luminescence, 30 min; at 5 µM; active compounds read high
Screen size: about 96,000 compounds; about 20,000 (21%) were called active. These entries were drawn from the full list.
Reported inhibition values for a set of compounds
quantityKind: inhibition (%)

[[record]]
compound = "CN1/C(=C\\C(=O)c2oc3ccccc3c2N)C(C)(C)c2ccccc21"
assaytarget = "Cytochrome P450 2C19 (Homo sapiens) (UniProt P33261)"
valueunits = "%"
quantitativeresult = 47.9

[[record]]
compound = "COC(=O)c1sccc1NC(=O)c1csc2c1CCCC2"
assaytarget = "Cytochrome P450 2C19 (Homo sapiens) (UniProt P33261)"
valueunits = "%"
quantitativeresult = 4.9

[[record]]
compound = "Cc1csc(NC(=O)C2CCCN2C(=O)OCC(C)C)n1 (stereo unspecified)"
assaytarget = "Cytochrome P450 2C19 (Homo sapiens) (UniProt P33261)"
valueunits = "%"
quantitativeresult = 29.2

[[record]]
compound = "O=C(NCCN1C(=O)C2C3C=CC(C3)C2C1=O)Nc1ccccn1 (stereo unspecified)"
assaytarget = "Cytochrome P450 2C19 (Homo sapiens) (UniProt P33261)"
valueunits = "%"
quantitativeresult = -10.2

[[record]]
compound = "COc1ccc(-c2cc(C3CCN(c4ncccc4[N+](=O)[O-])CC3)[nH]n2)cc1"
assaytarget = "Cytochrome P450 2C19 (Homo sapiens) (UniProt P33261)"
valueunits = "%"
quantitativeresult = 84.8

[[record]]
compound = "COc1cc(/C=N/O)cc(Br)c1OCc1cccc(Cl)c1"
assaytarget = "Cytochrome P450 2C19 (Homo sapiens) (UniProt P33261)"
valueunits = "%"
quantitativeresult = 4.4


###

assayTarget: Cytochrome P450 2C19 (Homo sapiens) (UniProt P33261)
procedureDetails: blockers of cytochrome P450 2C19 activity – biochemical, luminescence, ADME assay, primary screen (AID 778);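 further: plate controls were negative control wells for no effect and 2.5 mM tranylcypromine positive control for full effect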
conditionParameters: CYP2C19 Supersomes, luciferin-H EGE luminescence, 30 min; at 5 µM; active compounds read high
Screen size: about 96,000 compounds; about 20,000 (21%) were called active. Not all results are given here.
Label TRUE when inhibition is at or above 30%; anything below gets FALSE.

[[record]]
compoundstring = "O=C(CSCc1ccc(Cl)cc1)N1CCCCC1"
classlabel = "TRUE"

[[record]]
compoundstring = "CCSc1nnc(-c2cc3c(s2)-c2ccccc2CC3)o1"
classlabel = "FALSE"

[[record]]
compoundstring = "CCOC(=O)c1c(NC(=O)/C=C/c2ccco2)sc(C)c1C"
classlabel = "FALSE"

[[record]]
compoundstring = "CCc1c(C)sc(NC(=O)c2ccc(Br)o2)c1C(=O)OC"
classlabel = "FALSE"

[[record]]
compoundstring = "COCCCNCC(=O)Nc1sc(C)c(C)c1C(=O)OC"
classlabel = "TRUE"

[[record]]
compoundstring = "Cc1ccc(SCC(=O)c2cc(C)c(OC(=S)N(C)C)c(C)c2)cc1"
classlabel = "TRUE"

[[record]]
compoundstring = "O=C1c2cccnc2C(=O)N1Cc1cccs1"
classlabel = "FALSE"

[[record]]
compoundstring = "Cc1[nH][nH]c(=O)c1N=Nc1ccccc1"
classlabel = "FALSE"

